Biological target: UniProt:P31639
Sequence (P31639 whole entry): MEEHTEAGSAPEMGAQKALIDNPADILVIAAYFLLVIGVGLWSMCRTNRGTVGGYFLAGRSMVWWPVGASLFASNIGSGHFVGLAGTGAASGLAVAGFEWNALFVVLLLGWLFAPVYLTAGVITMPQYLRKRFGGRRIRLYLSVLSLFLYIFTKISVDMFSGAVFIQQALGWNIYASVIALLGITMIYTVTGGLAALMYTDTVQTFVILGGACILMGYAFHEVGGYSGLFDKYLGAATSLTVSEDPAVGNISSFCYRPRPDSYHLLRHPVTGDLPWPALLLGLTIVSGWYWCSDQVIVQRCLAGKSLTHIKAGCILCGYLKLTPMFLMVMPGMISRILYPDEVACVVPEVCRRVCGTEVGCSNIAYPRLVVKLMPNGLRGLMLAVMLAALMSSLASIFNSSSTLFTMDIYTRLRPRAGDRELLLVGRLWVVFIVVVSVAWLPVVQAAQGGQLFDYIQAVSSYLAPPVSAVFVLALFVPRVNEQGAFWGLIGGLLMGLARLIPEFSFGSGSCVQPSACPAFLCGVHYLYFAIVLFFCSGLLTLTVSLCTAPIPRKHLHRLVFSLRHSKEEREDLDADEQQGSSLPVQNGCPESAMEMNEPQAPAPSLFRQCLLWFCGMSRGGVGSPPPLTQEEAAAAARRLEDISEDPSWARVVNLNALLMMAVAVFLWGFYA
Assay: SGLT-2 assay: 14C-AMG uptake in CHO-hSGLT2 or HEK-hSGLT2 cells
Assay type: cell-based
Details: parent compound of the prodrugs; n = 1-4
quantity name: IC50 (nM)
Supply the numeric figure in nM, leaving out any unit text.

Reading of IC50 for OC[C@H]1O[C@@H](c2ccc(C3CC3)c(Cc3ccc4c(c3)OCCO4)c2)[C@H](O)[C@@H](O)[C@@H]1O with UniProt:P31639: 2.2
